- procedure-details: Therapeutic index in L1210 (murine leukemia) inoculated mice.
- condition-label: mouse; read-out: TI
Criterion: selectivity ratio strictly under 2. Met: true (1). Not met: false (0).

Here's what some known entries look like.
compound: O=NN(CCCl)C(=O)N[C@H]1C(O)O[C@H](CO)[C@@H](O)[C@@H]1O (stereo partly drawn)
category-label: false (0)
//
compound: CC1(C)O[C@@H]2[C@H](O1)[C@@H](COC(=O)c1ccc([N+](=O)[O-])cc1)O[C@H]2NC(=O)N(CCCl)N=O
category-label: false (0)
//
compound: O=NN(CCCl)C(=O)NC(Cc1c[nH]c2ccccc12)C(=O)NCCCl (stereo not drawn)
category-label: false (0)
//
compound: O=NN(CCCl)CCSSCCN(CCCl)N=O
category-label: false (0)
//
compound: O=NN(CCCl)C(=O)NC(Cc1ccccc1)C(=O)NCCCl (stereo not drawn)
category-label: true (1)
//
compound: CC(C)CC(NC(=O)N(CCCl)N=O)C(=O)NCCCl (stereo not drawn)
category-label: true (1)

Now consider the entry below.
Data request: Report whether reported selectivity ratio is lower than 2 (strictly) for O=NN(CCCl)C(=O)NCCC(=O)NCCCl
Data returned: false (0)

###

- Species: Mus musculus
- procedure-details: Optimum dose for antitumor activity against leukemia L1210 in mice
- Type: functional
Criterion: OD strictly under 20 mg/kg. Met: True. Not met: False.

compound: CN(CC(=O)NCCCl)C(=O)N(CCCl)N=O
category-label: False
--
compound: O=NN(CCCl)C(=O)NCC(=O)NCCCl
category-label: True
--
compound: O=NN(CCCl)C(=O)NC(Cc1ccccc1)C(=O)NCCCl (stereo not given)
category-label: False
--
compound: CCC(C)C(NC(=O)N(CCCl)N=O)C(=O)NCCCl (stereo not given)
category-label: False
--
compound: O=NN(CCCl)C(=O)NCCCC(=O)NCCCl
category-label: False

Data request: Report whether reported OD is lower than 20 mg/kg (strictly) for CC(C)CC(NC(=O)N(CCCl)N=O)C(=O)NCCCl (stereo not given)
Data returned: False

Data request: Report whether reported OD is lower than 20 mg/kg (strictly) for O=NN(CCCl)C(=O)NC(Cc1c[nH]c2ccccc12)C(=O)NCCCl (stereo not given)
Data returned: False

Data request: Report whether reported OD is lower than 20 mg/kg (strictly) for O=NN(CCCl)C(=O)N[C@H]1C(O)O[C@H](CO)[C@@H](O)[C@@H]1O (stereo not given in full) [CHLOROZOTOCIN]
Data returned: True

Data request: Report whether reported OD is lower than 20 mg/kg (strictly) for CC(O)C(NC(=O)N(CCCl)N=O)C(=O)NCCCl (stereo not given)
Data returned: True

Data request: Report whether reported OD is lower than 20 mg/kg (strictly) for O=NN(CCCl)CCSSCCN(CCCl)N=O
Data returned: False

Data request: Report whether reported OD is lower than 20 mg/kg (strictly) for O=NN(CCCl)C(=O)NCCC(=O)NCCCl
Data returned: False

###

Measured LD50, listed per entry for reference.
- procedure-details: Median lethal dose in L1210 (murine luekemia) inoculated mice.
- Assay type: toxicity, organism-based
- condition-label: mouse, in vivo
Kindly provide the numeric value in mg/kg only, without the unit symbol.

molecule: CC(NC(=O)N(CCCl)N=O)C(=O)NCCCl (stereo not given)
unit-spec: mg/kg
reading: 35
//
molecule: CC(C)CC(NC(=O)N(CCCl)N=O)C(=O)NCCCl (stereo not given)
unit-spec: mg/kg
reading: 64
//
molecule: CCC(C)C(NC(=O)N(CCCl)N=O)C(=O)NCCCl (stereo not given)
unit-spec: mg/kg
reading: 130
//
molecule: O=NN(CCCl)C(=O)N[C@H]1C(O)O[C@H](CO)[C@@H](O)[C@@H]1O (stereo not given in full)
unit-spec: mg/kg
reading: 35

Now look at this entry.
Data request: Give me measured LD50, please, for this molecule: NC(=O)CC(NC(=O)N(CCCl)N=O)C(=O)NCCCl (stereo not given)
Data returned: 35

###

- Species: Mus musculus
- procedure-details: Dose range for antitumor activity against leukemia L1210 in mice.
- Type: functional
Measured log10(Dose), listed per entry for reference.
All values: base-10 log of Dose in mg/kg.

molecule: O=NN(CCCl)C(=O)N1CCCC1C(=O)NCCCl (configuration not stated)
log10(Dose): 1.54
--
molecule: CCC(C)C(NC(=O)N(CCCl)N=O)C(=O)NCCCl (configuration not stated)
log10(Dose): 1.88
--
molecule: O=NN(CCCl)C(=O)NCC(=O)NCCCl
log10(Dose): 1.30

Data request: Give me measured log10(Dose), please, for this molecule: CC(NC(=O)N(CCCl)N=O)C(=O)NCCCl (configuration not stated)
Data returned: 1.48

Data request: Give me measured log10(Dose), please, for this molecule: O=NN(CCCl)C(=O)NCCCC(=O)NCCCl
Data returned: 1.70

Data request: Give me measured log10(Dose), please, for this molecule: CN(CC(=O)NCCCl)C(=O)N(CCCl)N=O
Data returned: 2.45

Data request: Give me measured log10(Dose), please, for this molecule: CC(O)C(NC(=O)N(CCCl)N=O)C(=O)NCCCl (configuration not stated)
Data returned: 1.30

Data request: Give me measured log10(Dose), please, for this molecule: O=NN(CCCl)C(=O)NC(Cc1ccc(O)cc1)C(=O)NCCCl (configuration not stated)
Data returned: 1.40

###

Measured Dose, listed per entry for reference.
- Organism: Mus musculus
- procedure-details: Dose range for antitumor activity against leukemia L1210 in mice.
- Format: functional
Answer with the value and then the unit.

Some compounds with recorded Dose:
compound: O=NN(CCCl)C(=O)NCCC(=O)NCCCl
Dose: 50 mg/kg

compound: CSCCC(NC(=O)N(CCCl)N=O)C(=O)NCCCl (stereo unspecified)
Dose: 30 mg/kg

compound: O=NN(CCCl)C(=O)N[C@H]1C(O)O[C@H](CO)[C@@H](O)[C@@H]1O (stereo partly specified) [CHLOROZOTOCIN]
Dose: 25 mg/kg

compound: O=NN(CCCl)C(=O)NC(Cc1c[nH]c2ccccc12)C(=O)NCCCl (stereo unspecified)
Dose: 35 mg/kg

compound: O=NN(CCCl)C(=O)NC1CCCCC1 [LOMUSTINE]
Dose: 10 mg/kg

Now look at this entry.
Data request: Give me measured Dose, please, for this compound: O=NN(CCCl)C(=O)NC(Cc1ccccc1)C(=O)NCCCl (stereo unspecified)
Data returned: 60 mg/kg

###

- procedure-details: Therapeutic index in L1210 (murine leukemia) inoculated mice.
- condition-label: mouse; read-out: TI
Measured selectivity ratio, listed per entry for reference.
# respond with the number and nothing more

Some compounds with recorded selectivity ratio:
compound: O=NN(CCCl)C(=O)NCCCC(=O)NCCCl
selectivity ratio: 3.6

compound: CSCCC(NC(=O)N(CCCl)N=O)C(=O)NCCCl (configuration not stated)
selectivity ratio: 1.6

compound: CC(NC(=O)N(CCCl)N=O)C(=O)NCCCl (configuration not stated)
selectivity ratio: 1.75

compound: O=NN(CCCl)C(=O)NCC(=O)NCCCl
selectivity ratio: 2

compound: NC(=O)CC(NC(=O)N(CCCl)N=O)C(=O)NCCCl (configuration not stated)
selectivity ratio: 1.75

compound: CCC(C)C(NC(=O)N(CCCl)N=O)C(=O)NCCCl (configuration not stated)
selectivity ratio: 2.6

Now look at this entry.
Data request: Give me measured selectivity ratio, please, for this compound: CC(O)C(NC(=O)N(CCCl)N=O)C(=O)NCCCl (configuration not stated)
Data returned: 1.6

###

- procedure-details: Median lethal dose in L1210 (murine luekemia) inoculated mice.
- Assay type: toxicity, organism-based
- condition-label: mouse, in vivo
property: LD50

Some compounds with recorded LD50:
compound: CC1(C)O[C@@H]2[C@H](O1)[C@@H](COC(=O)c1ccc([N+](=O)[O-])cc1)O[C@H]2NC(=O)N(CCCl)N=O
LD50: 90 mg/kg
--
compound: O=NN(CCCl)C(=O)NC(Cc1c[nH]c2ccccc12)C(=O)NCCCl (stereo unspecified)
LD50: 65 mg/kg
--
compound: CSCCC(NC(=O)N(CCCl)N=O)C(=O)NCCCl (stereo unspecified)
LD50: 32 mg/kg
--
compound: O=NN(CCCl)C(=O)NC(Cc1ccc(O)cc1)C(=O)NCCCl (stereo unspecified)
LD50: 40 mg/kg
--
compound: O=NN(CCCl)CCSSCCN(CCCl)N=O
LD50: 75 mg/kg

Now look at this entry.
Data request: Give me measured LD50, please, for this compound: CN(CC(=O)NCCCl)C(=O)N(CCCl)N=O
Data returned: 400 mg/kg

###

- Species: Mus musculus
- procedure-details: Dose range for antitumor activity against leukemia L1210 in mice.
- Type: functional
Measured Dose, listed per entry for reference.
Kindly provide the numeric value in mg/kg only, without the unit symbol.

compound: CC(C)CC(NC(=O)N(CCCl)N=O)C(=O)NCCCl (centres undefined)
unit-spec: mg/kg
Dose: 50
//
compound: CC1(C)O[C@@H]2[C@H](O1)[C@@H](COC(=O)c1ccc([N+](=O)[O-])cc1)O[C@H]2NC(=O)N(CCCl)N=O
unit-spec: mg/kg
Dose: 30
//
compound: NC(=O)CC(NC(=O)N(CCCl)N=O)C(=O)NCCCl (centres undefined)
unit-spec: mg/kg
Dose: 30

Now look at this entry.
Data request: Give me measured Dose, please, for this compound: O=NN(CCCl)CCSSCCN(CCCl)N=O
Data returned: 50
